Below, each entry is listed with its recorded Bcl2 level (ELISA).
Tested on: Bcl2
assay-explanation: ELISA Bcl2 in MCF7 cells
Type: cell-based, human
setup-conditions: MCF7 cells treated with IC50; untreated control 14.37

Example cases with answers are listed next.
COc1ccc(-c2c(Cl)n(-c3ccc(Cl)cc3Cl)c3ncnc(N4CCN(C)CC4)c23)cc1OC [Compound 16b]	4.25 pg/mL
NNc1ncnc2c1c(-c1ccc(Br)cc1)c(Cl)n2-c1ccc(Cl)cc1Cl [Compound 14a]	2.4 pg/mL
COc1ccc(-c2c(Cl)n(-c3ccc(Cl)cc3Cl)c3ncnc(NN)c23)cc1OC [Compound 14b]	8.25 pg/mL

Now for a further molecule.
Bcl2 level (ELISA) measured on COc1ccc(-c2c(Cl)n(-c3ccc(Cl)cc3Cl)c3ncnc(N4CCOCC4)c23)cc1OC [Compound 18b] = 9.24 pg/mL
